# systemUnderTest: Protein Mdm4 (Homo sapiens) + E3 ubiquitin-protein ligase Mdm2 (Homo sapiens) (UniProt O15151+Q00987)
# Sequence (O15151 whole entry, looked up): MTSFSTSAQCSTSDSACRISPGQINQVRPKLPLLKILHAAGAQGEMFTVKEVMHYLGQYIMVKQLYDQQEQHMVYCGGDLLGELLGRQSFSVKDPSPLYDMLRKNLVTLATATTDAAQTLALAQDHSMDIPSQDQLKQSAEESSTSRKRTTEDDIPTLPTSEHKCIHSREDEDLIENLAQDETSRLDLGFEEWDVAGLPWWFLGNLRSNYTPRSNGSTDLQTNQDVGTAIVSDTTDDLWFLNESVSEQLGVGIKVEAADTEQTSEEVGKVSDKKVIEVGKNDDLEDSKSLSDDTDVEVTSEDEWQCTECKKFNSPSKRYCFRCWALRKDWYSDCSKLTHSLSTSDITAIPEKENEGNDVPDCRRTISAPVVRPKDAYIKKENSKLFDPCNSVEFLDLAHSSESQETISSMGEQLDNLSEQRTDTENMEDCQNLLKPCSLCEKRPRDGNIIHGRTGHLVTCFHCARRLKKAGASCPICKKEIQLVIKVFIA
# Sequence (Q00987 whole entry, looked up): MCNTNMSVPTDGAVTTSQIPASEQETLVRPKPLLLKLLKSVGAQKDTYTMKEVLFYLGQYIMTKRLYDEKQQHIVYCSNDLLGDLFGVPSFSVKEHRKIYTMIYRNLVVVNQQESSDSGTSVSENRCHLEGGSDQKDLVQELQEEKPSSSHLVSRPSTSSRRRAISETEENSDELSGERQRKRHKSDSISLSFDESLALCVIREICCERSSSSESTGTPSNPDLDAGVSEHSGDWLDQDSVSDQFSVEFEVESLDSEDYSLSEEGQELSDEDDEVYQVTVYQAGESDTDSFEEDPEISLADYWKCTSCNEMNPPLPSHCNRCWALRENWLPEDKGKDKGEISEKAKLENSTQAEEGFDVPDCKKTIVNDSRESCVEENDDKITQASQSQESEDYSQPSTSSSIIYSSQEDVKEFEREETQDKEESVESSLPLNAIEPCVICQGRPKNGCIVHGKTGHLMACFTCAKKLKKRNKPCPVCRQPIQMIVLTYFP
# measurementDescription: retested Mdm2-MdmX interaction blockers, confirmation, cell-based, luminescence, single concentration, set 2 (AID 504601)
# particulars: SaOS-2 split-luciferase Mdm2/MdmX complementation, at 8 µM, stronger effect = higher value
The list shows a part of the results.
Could you please report measured inhibition for the items listed next?
Number in %, nothing else.

Answer with reported inhibition of COc1ccc2c(c1OC)C(=O)OC2Nc1nc(-c2ccccc2)cs1 (stereo not given) 103

Answer with reported inhibition of Cc1cccc(NC(=O)c2nc(S(=O)(=O)Cc3ccccc3)ncc2Cl)c1 103

Answer with reported inhibition of N#Cc1cccc(NC(=O)COC(=O)c2ccccc2C(=O)c2ccc(Cl)c([N+](=O)[O-])c2)c1 103

Answer with reported inhibition of O=C(/C=C/c1ccc(Cl)c([N+](=O)[O-])c1)c1ccc(O)cc1 103

Answer with reported inhibition of CCOC(=O)/C=C/C(=O)OCC(=O)NC(c1ccccc1)c1ccccc1 99.7

---

# measurementDescription: inhibitors of PAF-induced NFkB signaling in CF airway cells, dose response, cell-based, uHTS hits, panel, cytotoxicity readout (AID 624344)
# particulars: CF bronchial epithelial cells, PAF-induced NFkB reporter inhibition, with PAF, run 1; at 79 µM (top of the series) unless noted
measurementLabel: inhibition
Param answer (str): number followed by unit.

Answer with reported inhibition of O=C(NCCCSc1ccccc1)c1cc(Br)ccc1O 110%

Answer with reported inhibition of CC(C)C[C@@H](CN1CCCC1CN1C(=S)NC[C@@H]1Cc1ccc(O)cc1)N1C[C@H](Cc2ccc(O)cc2)N(CCc2ccccc2)C1=S (stereo partly specified) 112%

Answer with reported inhibition of CC1(Cc2cccc(F)c2)C(=O)Nc2ccc(-c3cccnc3)cc21 (stereo unspecified) 112%

Answer with reported inhibition of CC(C)C[C@H](CO)Nc1nc(Nc2cccc(Cl)c2)c2ncn(C(C)C)c2n1 112%

Answer with reported inhibition of Cc1cc(C)nc(Sc2ncnc(N)c2[N+](=O)[O-])n1 96.2%

Answer with reported inhibition of COc1cc(C2c3cc4c(cc3C3OC(=O)C2C3CO)OCO4)cc(OC)c1OC (stereo unspecified) 91.1%

Answer with reported inhibition of CC(C)(C)c1nc(NC(=O)Nc2ccccc2)sc1Br 107%

Answer with reported inhibition of O=C(NCc1ccccc1)C1=C[C@H](c2csc3ccccc23)C[C@H](OCc2ccc(CO)cc2)O1 72%

Answer with reported inhibition of CC(C)C[C@H]1CNC(=S)N1C[C@H]1CCCN1C[C@H](Cc1ccc(O)cc1)N1C[C@H](Cc2ccc(O)cc2)N(CC2CCCCC2)C1=S 104%

Answer with reported inhibition of CCSc1nsc(NC(=O)Nc2cccc(OC)c2)n1 102%

Answer with reported inhibition of O=C(/C=C/c1cccc([N+](=O)[O-])c1)n1cnc2ccccc21 102%

Answer with reported inhibition of COC(=O)C1=C(C(=O)OC)[C@@H]2N(Cc3ccccc3)c3ccccc3[C@@]23C[C@@H](C(=O)OC)N(C(=O)c2ccc(Br)cc2)C3=N1 101%

Answer with reported inhibition of Brc1cccc(CSc2nnc(-c3ccncc3)o2)c1 105%

Answer with reported inhibition of NC(=O)c1nsc(C(=O)N(c2ccccc2F)C(C(=O)NCc2ccc(F)cc2)c2ccc(O)cc2)c1N (stereo unspecified) 106%

Answer with reported inhibition of Cc1cccc(NS(=O)(=O)c2ccc(-c3cnc(C4CC4)o3)cc2)c1C 105%

Answer with reported inhibition of Cc1nc(N2CCC(C(N)=O)CC2)c2c(-c3cccs3)csc2n1 97.5%

Answer with reported inhibition of O=S(=O)(c1cccc2cnccc12)N1CCCNCC1 116%

Answer with reported inhibition of CC(=O)c1ccc(-n2c(C)c(C(C)=O)c3cc(O)ccc32)cc1 56.2%

Answer with reported inhibition of Cc1cccc(NC(=O)Nc2ccc(C#N)cc2)n1 103%

Answer with reported inhibition of O=C(Oc1ccc(F)cc1C(=O)/C=C/c1cccs1)c1cccc([N+](=O)[O-])c1 49.3%

Answer with reported inhibition of O=C1NC(=S)N/C1=C/c1cccnc1 97.5%
